IC50 listing for selected molecules.
Test system: P388
test protocol: Concentration required to inhibit p388 murine leukemia cells by 50%
Assay type: functional, cell-based
condition set: Mus musculus
readout label: IC50 (ng/mL)

                                   molecule  assayed_target  readout_label  observed
0  COC(=O)c1[nH]c2c(c1C(=O)OC)C13CC1CN(C(=O)c1cc4cc(NC(=O)c5cc6ccccc6[nH]5)ccc4[nH]1)C3=CC2=O (racemic)            P388           IC50      0.31
1  COC(=O)c1c(C(F)(F)F)[nH]c2c1C13CC1CN(C(=O)c1cc4cc(NC(=O)c5cc6ccccc6o5)ccc4[nH]1)C3=CC2=O (racemic)            P388           IC50      0.53
2  COC(=O)c1c(C)[nH]c2c1[C@@]13C[C@@H]1CN(C(=O)c1cc4cc(OC)c(OC)c(OC)c4[nH]1)C3=CC2=O (racemic)            P388           IC50      0.34
3  COC(=O)c1c(C(F)(F)F)[nH]c2c1C13CC1CN(C(=O)c1cc4cc(OC)c(OC)c(OC)c4[nH]1)C3=CC2=O (racemic)            P388           IC50      0.24
4  COC(=O)c1c(C(F)(F)F)[nH]c2c1C13CC1CN(C(=O)c1cc4cc(NC(=O)c5cc6ccccc6[nH]5)ccc4[nH]1)C3=CC2=O (racemic)            P388           IC50      0.86
5  COC(=O)c1c(C(F)(F)F)[nH]c2c1C13CC1CN(C(=O)c1cc4cc(OC)ccc4[nH]1)C3=CC2=O (racemic)            P388           IC50      0.23
6  COC(=O)c1[nH]c2c(c1C(=O)OC)C13CC1CN(C(=O)c1cc4cc(NC(=O)c5cc6ccccc6o5)ccc4[nH]1)C3=CC2=O (racemic)            P388           IC50      0.66

====

Tested on: P388
test protocol: Percent increase in life span of p388 murine leukemia cells (inoculated i.p. on day 0) as compared to that of untreated group at 0.125 mg/kg i.p. compound dose on day 1
Type: functional
condition set: Mus musculus, P388, ip, route intraperitoneal
readout label: ILS at 0.125 mg/kg (%)

                                   compound  assayed_target  endpoint_unit  observed
0  COC(=O)c1c(C(F)(F)F)[nH]c2c1C13CC1CN(C(=O)c1cc4cc(OC)ccc4[nH]1)C3=CC2=O (racemic)            P388              %        69
1  COC(=O)c1[nH]c2c(c1C(=O)OC)C13CC1CN(C(=O)c1cc4cc(NC(=O)c5cc6ccccc6[nH]5)ccc4[nH]1)C3=CC2=O (racemic)            P388              %       102
2  COC(=O)c1[nH]c2c(c1C(=O)OC)C13CC1CN(C(=O)c1cc4cc(NC(=O)c5cc6ccccc6o5)ccc4[nH]1)C3=CC2=O (racemic)            P388              %        79
3  COC(=O)c1c(C)[nH]c2c1[C@@]13C[C@@H]1CN(C(=O)c1cc4cc(OC)c(OC)c(OC)c4[nH]1)C3=CC2=O (racemic)            P388              %        80
4  COC(=O)c1c(C(F)(F)F)[nH]c2c1C13CC1CN(C(=O)c1cc4cc(OC)c(OC)c(OC)c4[nH]1)C3=CC2=O (racemic)            P388              %        94
